Target: Vhr1 (UniProt P40522)
Sequence: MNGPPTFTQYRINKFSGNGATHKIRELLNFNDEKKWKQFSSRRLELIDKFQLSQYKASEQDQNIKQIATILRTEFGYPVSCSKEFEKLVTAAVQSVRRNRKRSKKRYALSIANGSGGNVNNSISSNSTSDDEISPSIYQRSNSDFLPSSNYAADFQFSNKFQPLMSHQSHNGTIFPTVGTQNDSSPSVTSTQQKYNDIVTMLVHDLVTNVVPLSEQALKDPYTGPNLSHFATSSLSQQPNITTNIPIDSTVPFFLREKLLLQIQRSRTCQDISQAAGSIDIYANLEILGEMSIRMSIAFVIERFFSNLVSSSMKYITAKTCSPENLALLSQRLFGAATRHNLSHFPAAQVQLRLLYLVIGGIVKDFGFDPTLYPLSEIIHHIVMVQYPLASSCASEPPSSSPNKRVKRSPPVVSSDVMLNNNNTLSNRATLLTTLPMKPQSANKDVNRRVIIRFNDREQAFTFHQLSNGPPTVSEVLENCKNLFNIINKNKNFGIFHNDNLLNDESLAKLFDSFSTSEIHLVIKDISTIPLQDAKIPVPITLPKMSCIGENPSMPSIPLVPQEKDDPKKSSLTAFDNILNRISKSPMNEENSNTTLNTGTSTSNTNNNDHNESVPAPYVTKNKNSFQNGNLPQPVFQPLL
Assay: PBM E-score (8-mer binding enrichment) (E-score (-0.5 to 0.5)); higher = stronger / more preferred TF binding
Settings: protein concentration: 200 nM; construct: GST-full length
In all, about 33,000 sequences were measured (“E-score (-0.5 to 0.5)”: median about -0.012, highest 2% from about 0.27 on). This is one part of a sample in which the highest values are shown more often than they occur.
Respond with YES for PBM E-score values of 0.06 and above, NO for values below.

Worked examples follow.
- sequence text: "CAACTTGG"
  label class: "NO"
- sequence text: "CGAAGTGC"
  label class: "NO"
- sequence text: "CAAGTAAG"
  label class: "NO"
- sequence text: "AGCGCGCG"
  label class: "YES"
- sequence text: "ACGTCACC"
  label class: "NO"
- sequence text: "TGCCACAA"
  label class: "YES"
- sequence text: "CAGTCACA"
  label class: "YES"
- sequence text: "TTACCTAA"
  label class: "NO"

Answer whether PBM E-score of AGTCGCGC is greater than or equal to 0.06. YES

Form field: PBM E-score at least 0.06? Entry: GAATCAAA NO
